# assayTarget: T1, human angiotensin 2 type 1 receptor (human, UniProt P30556 1-359)
# T1 sequence (looked up): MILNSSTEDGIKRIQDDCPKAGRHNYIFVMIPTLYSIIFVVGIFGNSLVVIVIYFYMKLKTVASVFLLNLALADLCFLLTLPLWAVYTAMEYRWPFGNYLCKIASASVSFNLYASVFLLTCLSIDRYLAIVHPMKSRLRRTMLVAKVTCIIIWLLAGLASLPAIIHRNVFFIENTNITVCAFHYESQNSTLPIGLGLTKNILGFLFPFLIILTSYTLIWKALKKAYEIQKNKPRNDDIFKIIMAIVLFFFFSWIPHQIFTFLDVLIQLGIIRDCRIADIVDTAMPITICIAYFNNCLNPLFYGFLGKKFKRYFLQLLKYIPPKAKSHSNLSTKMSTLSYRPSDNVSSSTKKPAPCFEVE
# testMethodNotes: cell-based or functional assay
quantityKind: b-arrestin2 EC50

INSERT INTO results (binder, result) VALUES
  ('VYIHPF (cyclic, as printed: Cyclo(...)) [SEQ ID NO: 38]', '0.68 µM'),
  ('DRVYYHP (N-Me-Asp (N-methyl-L-aspartic acid) at 1; C-terminal amide (NH2)) [SEQ ID NO: 61]', '1.2 µM'),
  ('ERVYFHP (C-terminal amide (NH2)) [SEQ ID NO: 64]', '1.2 µM');

# credit: patent US20100184701A1
